The reported numbers originate from paper PMC4153296.

testedTarget: chimeric Taq 7-2 (Thermus aquaticus / environmental DNA chimera)
protocolDescription: EMSA
assayContext: EMSA: 3 nM DNA, 20 mM Tris-HCl pH 8.8, 10 mM NaCl, 5 mM MgCl2, 14 mM 2-mercaptoethanol, 0.1 mg/ml BSA, 5% glycerol, 40 C, 5 min; 1% agarose gel
measurementKind: Kd (nM)
Report the value in nM with no unit label.

Request: So what Kd did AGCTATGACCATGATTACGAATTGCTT / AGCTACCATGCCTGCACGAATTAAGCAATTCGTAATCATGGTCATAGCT [primed DNA (27mer/49mer)] get with chimeric Taq 7-2 (Thermus aquaticus / environmental DNA chimera)?
Result: 5
